pKi: −log10 of the molar value.
// compounds with pKi on Lysophosphatidic acid receptor 1 (Homo sapiens, UniProt Q92633), multi-source literature
Sequence (Q92633 whole entry): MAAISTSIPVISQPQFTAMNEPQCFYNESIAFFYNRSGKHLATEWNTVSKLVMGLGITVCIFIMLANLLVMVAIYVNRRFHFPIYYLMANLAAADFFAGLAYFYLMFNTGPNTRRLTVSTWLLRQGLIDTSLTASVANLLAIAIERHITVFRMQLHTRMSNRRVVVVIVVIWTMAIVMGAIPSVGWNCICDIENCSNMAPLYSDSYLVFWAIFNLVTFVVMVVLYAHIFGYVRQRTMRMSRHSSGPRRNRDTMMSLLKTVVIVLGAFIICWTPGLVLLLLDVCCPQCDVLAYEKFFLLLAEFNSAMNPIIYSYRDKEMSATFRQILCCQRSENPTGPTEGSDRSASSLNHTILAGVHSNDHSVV
measure: pKi

Task: Consider the compound CC1=C(NC(=O)OC(C)c2ccccc2Cl)C(c2ccc(CSCCC(=O)O)cc2)ON1 (stereo not given) and give its measured pKi.
Output: 5.19

Task: Consider the compound CCCCCCCC/C=C\CCCCCCCC(=O)N[C@@H](COP(=O)(O)O)Cc1ccc(OCc2cc(OCCOC)ccn2)cc1 and give its measured pKi.
Output: 7.46

1. CCCCCCCC(=O)OC[C@H](COP(=O)(O)OP(=O)(O)O)OC(=O)CCCCCCC
2. CCCCCCCCCCCCOP(=O)(O)O
3. CCCCCCCC/C=C\CCCCCCCC(=O)N[C@@H](COP(=O)(O)O)Cc1ccc(OCc2cc(OCC(F)(F)F)ccn2)cc1
Task: Could you please sort these 3 entries by pKi from high to low? Hello, could you send the labels back in the order asked? Thank you.
Output: 3, 2, 1
(3: 7.72, 2: 5.87, 1: 5.37)
